Data credit: the Immune Epitope Database (IEDB)

Target: HLA-A*68:01
Test: IEDB peptide-MHC binding, purified MHC/competitive/radioactivity; filed as Kd, often an IC50 or EC50 that approximates it; bounds were set here for any values at or beyond the usual limits of such assays
Details: source organism: Plasmodium falciparum
Measured Kd by item

entry-sequence	value-units	lt-gt-eq	Kd
FLKENKLNK	nM	=	444
KSLYDEHIKK	nM	≥	10000
VTCGNGIQVR	nM	=	444
VLSHNSYEK	nM	=	2860
VLYNTEKGR	nM	=	1230
KILSVFFLA	nM	=	8890
GTGSGVSSK	nM	=	3480
RINEEKHEK	nM	≥	10000
GVSENIFLK	nM	=	10
GTGSGVSSKK	nM	≥	10000
KSLYDEHIK	nM	≥	10000
SLYDEHIKK	nM	=	615

* * *

Molecular target: HLA-A*68:02
Experiment: IEDB peptide-MHC binding, purified MHC/competitive/radioactivity; filed as Kd, often an IC50 or EC50 that approximates it; bounds were set here for any values at or beyond the usual limits of such assays
Conditions: source organism: Plasmodium falciparum
measured-quantity: Kd (µM)

entry-sequence	value-units	result
ILSVSSFLFV	µM	2.1

* * *

Molecular target: HLA-A*31:01
Test: IEDB peptide-MHC binding, purified MHC/competitive/radioactivity; filed as Kd, often an IC50 or EC50 that approximates it; bounds were set here for any values at or beyond the usual limits of such assays
Settings: source organism: Plasmodium falciparum 3D7
# Kd annotations

entry-sequence	Kd
ALLACAGLAY	5.46 µM
IIRLHSDASK	≥ 10 µM
SLLSTNLPY	≥ 10 µM
LLACAGLAY	≥ 10 µM
RLHSDASKNK	≥ 10 µM

* * *

Molecular target: HLA-A*33:01
Experiment: IEDB peptide-MHC binding, purified MHC/competitive/radioactivity; filed as Kd, often an IC50 or EC50 that approximates it; bounds were set here for any values at or beyond the usual limits of such assays
Conditions: source organism: Plasmodium falciparum 3D7
pKd: −log10 of the molar value.
pKd for assorted sequences
measured-quantity: pKd

entry-sequence	tested-on	lt-gt-eq	result
LLACAGLAY	HLA-A*33:01	=	5.18
IIRLHSDASK	HLA-A*33:01	≤	5.00
ALLACAGLAY	HLA-A*33:01	=	5.29
RLHSDASKNK	HLA-A*33:01	≤	5.00
SLLSTNLPY	HLA-A*33:01	≤	5.00

* * *

Target: HLA-B*54:01
Assay: IEDB peptide-MHC binding, purified MHC/competitive/radioactivity; filed as Kd, often an IC50 or EC50 that approximates it; bounds were set here for any values at or beyond the usual limits of such assays
Conditions: source organism: Plasmodium falciparum 3D7
# Lookup of reported Kd keyed by entry

entry-sequence	Kd
HPSDGKCNL	≥ 10 µM
TPYAGEPAPF	≥ 10 µM

* * *

Target: HLA-B*07:02
Assay: IEDB peptide-MHC binding, purified MHC/competitive/radioactivity; filed as Kd, often an IC50 or EC50 that approximates it; bounds were set here for any values at or beyond the usual limits of such assays
Settings: source organism: Plasmodium falciparum 3D7

entry-sequence	tested-on	Kd / µM
HPSDGKCNL	HLA-B*07:02	0.275

* * *

Biological target: HLA-A*31:01
Experiment: IEDB peptide-MHC binding, purified MHC/competitive/radioactivity; filed as Kd, often an IC50 or EC50 that approximates it; bounds were set here for any values at or beyond the usual limits of such assays
Details: source organism: Plasmodium falciparum
pKd: −log10 of the molar value.

entry-sequence	pKd
VLSHNSYEK	≤ 5.00
KILSVFFLA	5.11
GTGSGVSSKK	≤ 5.00

* * *

Target: HLA-A*11:01
Assay: IEDB peptide-MHC binding, purified MHC/competitive/radioactivity; filed as Kd, often an IC50 or EC50 that approximates it; bounds were set here for any values at or beyond the usual limits of such assays
Details: source organism: Plasmodium falciparum
measured-quantity: Kd (nM)

entry-sequence	measured-quantity	result
KILSVFFLA	Kd	3.2
VTCGNGIQVR	Kd	11
VLYNTEKGR	Kd	3160
FLKENKLNK	Kd	3750
GTGSGVSSK	Kd	40
FILVNLLIFH	Kd	1330
HVLSHNSYEK	Kd	200
KSLYDEHIKK	Kd	29
SLYDEHIKK	Kd	8.6
RINEEKHEK	Kd	40
GTGSGVSSKK	Kd	353
VLSHNSYEK	Kd	19
GVSENIFLK	Kd	5
KSLYDEHIK	Kd	231

* * *

Biological target: HLA-A*03:01
Assay: IEDB peptide-MHC binding, purified MHC/competitive/radioactivity; filed as Kd, often an IC50 or EC50 that approximates it; bounds were set here for any values at or beyond the usual limits of such assays
Conditions: source organism: Plasmodium falciparum
Listing: Kd of selected sequences
measured-quantity: Kd (nM)

entry-sequence	measured-quantity	value-units	lt-gt-eq	result
KSLYDEHIK	Kd	nM	≥	10000
KILSVFFLA	Kd	nM	=	18
VLSHNSYEK	Kd	nM	=	79
GTGSGVSSK	Kd	nM	=	126
VLYNTEKGR	Kd	nM	=	282
GVSENIFLK	Kd	nM	=	151
GTGSGVSSKK	Kd	nM	=	1100
FLKENKLNK	Kd	nM	=	145
SLYDEHIKK	Kd	nM	=	28
FILVNLLIFH	Kd	nM	=	733
VTCGNGIQVR	Kd	nM	=	6880
RINEEKHEK	Kd	nM	=	786
HVLSHNSYEK	Kd	nM	=	407
KSLYDEHIKK	Kd	nM	=	1000

* * *

Target: HLA-A*31:01
Assay: IEDB peptide-MHC binding, purified MHC/competitive/radioactivity; filed as Kd, often an IC50 or EC50 that approximates it; bounds were set here for any values at or beyond the usual limits of such assays
Details: source organism: Plasmodium falciparum

entry-sequence	value-units	lt-gt-eq	Kd
KSLYDEHIKK	µM	≥	10
FLKENKLNK	µM	≥	10
GTGSGVSSK	µM	≥	10
KSLYDEHIK	µM	≥	10
HVLSHNSYEK	µM	≥	10
RINEEKHEK	µM	=	0.486
FILVNLLIFH	µM	=	1.96
VTCGNGIQVR	µM	=	0.015
VLYNTEKGR	µM	=	8.57
GVSENIFLK	µM	=	2.25
SLYDEHIKK	µM	≥	10

* * *

Target: HLA-A*03:01
Experiment: IEDB peptide-MHC binding, purified MHC/competitive/radioactivity; filed as Kd, often an IC50 or EC50 that approximates it; bounds were set here for any values at or beyond the usual limits of such assays
Conditions: source organism: Plasmodium falciparum 3D7
pKd: −log10 of the molar value.

entry-sequence	tested-on	pKd
SLLSTNLPY	HLA-A*03:01	5.94
IIRLHSDASK	HLA-A*03:01	6.49
ALLACAGLAY	HLA-A*03:01	6.45
RLHSDASKNK	HLA-A*03:01	6.59

* * *

Biological target: HLA-A*33:01
Assay: IEDB peptide-MHC binding, purified MHC/competitive/radioactivity; filed as Kd, often an IC50 or EC50 that approximates it; bounds were set here for any values at or beyond the usual limits of such assays
Conditions: source organism: Plasmodium falciparum
// Kd lookup, one value per entry
measured-quantity: Kd

entry-sequence	measured-quantity	result
KSLYDEHIKK	Kd	≥ 10 µM
SLYDEHIKK	Kd	≥ 10 µM
FLKENKLNK	Kd	2.64 µM
HVLSHNSYEK	Kd	≥ 10 µM
GTGSGVSSKK	Kd	≥ 10 µM
KSLYDEHIK	Kd	≥ 10 µM
GVSENIFLK	Kd	8.29 µM
FILVNLLIFH	Kd	0.397 µM
KILSVFFLA	Kd	5.92 µM
VLSHNSYEK	Kd	≥ 10 µM
GTGSGVSSK	Kd	≥ 10 µM
RINEEKHEK	Kd	≥ 10 µM

* * *

Target: HLA-B*35:01
Assay: IEDB peptide-MHC binding, purified MHC/competitive/radioactivity; filed as Kd, often an IC50 or EC50 that approximates it; bounds were set here for any values at or beyond the usual limits of such assays
Details: source organism: Plasmodium falciparum 3D7
measured-quantity: Kd

entry-sequence	tested-on	measured-quantity	result
HPSDGKCNL	HLA-B*35:01	Kd	≥ 10 µM

* * *

Listed here: items and their measured Kd.
Biological target: HLA-A*02:06
Assay: IEDB peptide-MHC binding, purified MHC/competitive/radioactivity; filed as Kd, often an IC50 or EC50 that approximates it; bounds were set here for any values at or beyond the usual limits of such assays
Details: source organism: Plasmodium falciparum
measured-quantity: Kd

entry-sequence	measured-quantity	result
ILSVSSFLFV	Kd	587 nM
KILSVFFLA	Kd	8 nM

* * *

Target: HLA-A*02:01
Experiment: IEDB peptide-MHC binding, purified MHC/competitive/radioactivity; filed as Kd, often an IC50 or EC50 that approximates it; bounds were set here for any values at or beyond the usual limits of such assays
Conditions: source organism: Plasmodium falciparum 3D7
pKd: −log10 of the molar value.
measured-quantity: pKd

entry-sequence	tested-on	result
FLIFFDLFLV	HLA-A*02:01	7.92
